From: patent US11771709B2

# Target or system: ALK protein in H3122 (EML4-ALK) cells (Homo sapiens, UniProt Q9UM73)
# Construct: EML4 (Echinoderm microtubule-associated protein-like 4, Q9HC35) fusion partner, variant 1; host or cells: NCI-H3122 lung adenocarcinoma cells; the other entry of the earlier key: EML4 (Q9HC35, Echinoderm microtubule-associated protein-like 4)
# Sequence (Q9UM73 with tags, fused parts or gaps): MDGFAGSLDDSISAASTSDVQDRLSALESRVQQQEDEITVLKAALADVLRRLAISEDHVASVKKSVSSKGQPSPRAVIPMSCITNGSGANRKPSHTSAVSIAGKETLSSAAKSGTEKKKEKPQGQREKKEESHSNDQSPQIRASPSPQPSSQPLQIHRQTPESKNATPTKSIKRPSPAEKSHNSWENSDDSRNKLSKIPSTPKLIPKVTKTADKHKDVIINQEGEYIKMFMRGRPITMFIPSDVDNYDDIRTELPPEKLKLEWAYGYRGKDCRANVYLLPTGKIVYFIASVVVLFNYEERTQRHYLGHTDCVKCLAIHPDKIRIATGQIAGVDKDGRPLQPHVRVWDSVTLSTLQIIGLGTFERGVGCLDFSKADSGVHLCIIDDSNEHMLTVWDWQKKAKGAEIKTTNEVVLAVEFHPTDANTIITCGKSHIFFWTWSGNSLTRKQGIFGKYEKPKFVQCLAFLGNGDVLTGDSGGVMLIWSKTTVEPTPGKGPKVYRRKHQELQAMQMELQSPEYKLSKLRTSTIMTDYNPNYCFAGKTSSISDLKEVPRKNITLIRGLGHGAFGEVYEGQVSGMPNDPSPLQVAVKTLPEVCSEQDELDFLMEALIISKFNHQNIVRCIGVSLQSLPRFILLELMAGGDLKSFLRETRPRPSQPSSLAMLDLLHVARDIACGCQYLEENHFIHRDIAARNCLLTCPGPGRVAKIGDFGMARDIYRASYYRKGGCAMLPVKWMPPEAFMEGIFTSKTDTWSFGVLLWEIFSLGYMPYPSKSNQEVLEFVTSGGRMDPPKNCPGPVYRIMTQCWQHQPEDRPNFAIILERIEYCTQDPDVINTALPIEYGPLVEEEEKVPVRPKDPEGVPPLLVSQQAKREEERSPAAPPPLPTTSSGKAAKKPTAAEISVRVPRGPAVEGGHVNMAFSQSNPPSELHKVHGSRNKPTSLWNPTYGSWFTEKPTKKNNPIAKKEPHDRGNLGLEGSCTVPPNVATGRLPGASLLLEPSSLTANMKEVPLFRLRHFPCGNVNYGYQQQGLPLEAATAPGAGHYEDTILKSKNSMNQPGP
# Test method notes: Western blot of ALK protein level (degradation, DC50), ALK phosphorylation and downstream signaling in H3122 cells
# Assay type: cell-based
# Experimental context: ALK protein degradation in H3122 cells
I'd be grateful if you could share measured DC50 for these entries.

Example results:
Molecule: COc1cc(N2CCC(N3CCN(C(=O)CCCCCCCCC(=O)N[C@H](C(=O)N4C[C@H](O)C[C@H]4C(=O)NCc4ccc(-c5scnc5C)cc4)C(C)(C)C)CC3)CC2)ccc1Nc1ncc(Cl)c(Nc2ccccc2P(C)(C)=O)n1
DC50: 10 to 50 nM
--
Molecule: Cc1cc(Nc2ncc(Cl)c(Nc3ccccc3S(=O)(=O)C(C)C)n2)c(OC(C)C)cc1C1CCN(C(=O)CCCCCCCCC(=O)N[C@H](C(=O)N2C[C@H](O)C[C@H]2C(=O)NCc2ccc(-c3scnc3C)cc2)C(C)(C)C)CC1
DC50: 100 to 500 nM

Attention now turns to another entry.
So what does the record say about DC50 for COc1cc(N2CCC(N3CCN(C(=O)CCOCCOCCOCCOCCNc4cccc5c4C(=O)N(C4CCC(=O)NC4=O)C5=O)CC3)CC2)ccc1Nc1ncc(Cl)c(Nc2ccccc2P(C)(C)=O)n1 (stereo not drawn) ?
1 to 10 nM
